test system: leukemic cell lines (KG-1, Kasumi-1 and HL-60); assay: dose/response analysis of leukemic cell lines to idarubicin in the open reversed microwell system; assay type: cell-based; details: response level: resistant; leukemic cell line (one of KG-1, Kasumi-1, HL-60); FIG. 9C
endpoint label: IC50

# compound, endpoint label, observed value
records = [
    ("CC(=O)[C@]1(O)Cc2c(O)c3c(c(O)c2[C@@H](O[C@H]2C[C@H](N)[C@H](O)[C@H](C)O2)C1)C(=O)c1ccccc1C3=O [idarubicin]", "IC50", "213 nM"),
]

Measured values drawn from patent US10569270B2 for this set.
